system: XIP peptide (Xip251-270) binding; assay: small-molecule binders of XIP peptide, primary screen, biochemical, small-molecule microarray, fluorescence 635/667 nm, 0.1 µg/mL protein (AID 1182); details: fluorescent protein binding, 635 nm, higher = more signal, called active from +8 up or from −8 down
Recorded metric: composite z-score
Numbers only.

Molecule	Recorded metric	Observed
C=CCC(OC(C)=O)[C@@H]1[C@@H](N(Cc2cccc3ccccc23)C(=O)Cc2ccc(F)cc2)c2cc(OCCCO)ccc2N1C(=O)c1ccc(-c2ccccc2)cc1 (stereo partly drawn)	composite z-score	-1.31

Batch: composite z-score for all items listed.
1. COc1cc(NN2C(C(O)C3CCCCC3)C=CC3C(=O)N(C)C(=O)C32)cc(OC)c1OC (stereo not drawn)
2. CCOC(=O)C1=CCC(c2ccccc2)N(S(=O)(=O)c2ccc([N+](=O)[O-])cc2)C1 (stereo not drawn)
3. C=CC[C@H](OC(=O)Nc1ccc(SC)cc1)c1ccc(OCCO)cc1
4. COCC(=C=CC[C@H](O)c1cccc(OCCO)c1)C[C@H](O)COCc1ccccc1
5. C[C@@]12COC[C@]13C=C(Br)[C@H](C2)[C@@]1(CO1)C3=O
6. CCOC(=O)C1=C[C@@H](C(C)(C)C)N(S(=O)(=O)c2ccc(C)cc2)[C@H]1c1cccc(Cl)c1

1: 0.123; 2: 0.0444; 3: 1.07; 4: 0.196; 5: 0.0387; 6: -0.248

Provide measured composite z-score value, entry: `COc1ccc([Si](C)(C)[C@@H]2[C@@H](CC(=O)N3Cc4ccccc4C[C@H]3CO)O[C@]3(C(=O)N(c4ccccc4)c4ccccc43)[C@H]2C)cc1`
3.93
